Test: Single dose study (001 Study) Part A: plasma PK of compound A
Format: in vivo
Details: human, plasma, po, 25 mg, single oral 25 mg, healthy subjects (Part A); read-out: tmax Median
observation.type: Tmax (h)
Write the answer as a number in h, unit excluded.

Requested read-out: Tmax. Entry: Cc1ncc(OC[C@@]2(c3cccc(F)c3)C[C@H]2C(=O)Nc2ccc(F)cn2)c(C)n1
2.01

###

Assay: Single daily dose PK in human subjects (summary statements)
Assay type: in vivo
Conditions: plasma, oral, single 10 mg daily dose, read-out: mean time to maximum plasma concentration (tmax)
observation.type: Tmax

Look up Tmax: Cc1ncc(OC[C@@]2(c3cccc(F)c3)C[C@H]2C(=O)Nc2ccc(F)cn2)c(C)n1
1 to 3.25 h

###

Assay: Crossover study of relative bioavailability of tablet versus capsule (005 Study): plasma PK
Assay type: in vivo, human
Details: human, plasma, po, 2.5 mg, single oral 2.5 mg Tablet, healthy adults; read-out: t1/2 Mean(SD) (converted)
observation.type: half-life (h)
Record the value in h, omitting the unit from your answer.

What value of half-life has been reported for the following compound? Cc1ncc(OC[C@@]2(c3cccc(F)c3)C[C@H]2C(=O)Nc2ccc(F)cn2)c(C)n1
35.1

###

Assay: Multiple ascending dose study (002 Study): plasma PK
Type: in vivo, human
Conditions: human, plasma, oral, 75 mg, Day 1, 75 mg once daily in the evening; read-out: Cmax Mean(SD)
observation.type: Cmax (ng/mL)
Provide only the numeric value, understood in ng/mL.

Give its Cmax value. Item: Cc1ncc(OC[C@@]2(c3cccc(F)c3)C[C@H]2C(=O)Nc2ccc(F)cn2)c(C)n1
223

###

Assay: Single daily dose PK in human subjects (summary statements)
Assay type: in vivo
Settings: plasma, oral, single 10 mg daily dose
observation.type: AUC(0-inf)

Param item = Cc1ncc(OC[C@@]2(c3cccc(F)c3)C[C@H]2C(=O)Nc2ccc(F)cn2)c(C)n1 [Compound A] ; retrieve measured AUC(0-inf).
310 to 530 ng·h/mL

###

Test: Crossover study of relative bioavailability of tablet versus capsule (005 Study): plasma PK
Assay type: in vivo, human
Conditions: human, plasma, po, 10 mg, single oral 10 mg Capsule, healthy adults; read-out: tmax (median)
observation.type: Tmax (h)
Number in h, nothing else.

Which Tmax is listed for Cc1ncc(OC[C@@]2(c3cccc(F)c3)C[C@H]2C(=O)Nc2ccc(F)cn2)c(C)n1 ?
1.5

###

Assay: Single dose study (001 Study) Part A: plasma PK of compound A
Type: in vivo
Details: human; plasma at 9 h after single oral 200 mg, healthy subjects (Part A); read-out: C9 Mean(SD)
observation.type: concentration at 9 h (ng/mL)
Expressed in ng/mL, but write only the number.

Find the recorded concentration at 9 h belonging to Cc1ncc(OC[C@@]2(c3cccc(F)c3)C[C@H]2C(=O)Nc2ccc(F)cn2)c(C)n1 and report it.
199

###

Experiment: Crossover study of relative bioavailability of tablet versus capsule (005 Study): plasma PK
Format: in vivo, human
Conditions: human, plasma, po, 2.5 mg, single oral 2.5 mg Capsule, healthy adults; read-out: AUC(0-inf) Mean(SD)
Description: Single-center, open-label, randomized crossover study was conducted to evaluate, in healthy adult subjects, the bioavailability of single solid oral doses of compound A in tablet formulation relative to single oral doses of compound A in capsule formulation at 2.5, 10, and 25 mg. […] Plasma concentrations of compound A were measured using a validated liquid chromatography-tandem mass spectrometry (LC-MS/MS) assay. […]
observation.type: AUC(0-inf) (ng·h/mL)
Reply with just the number (in ng·h/mL).

// query AUC(0-inf) value for entry Cc1ncc(OC[C@@]2(c3cccc(F)c3)C[C@H]2C(=O)Nc2ccc(F)cn2)c(C)n1 [Compound A]
103
